B1: glmS ribozyme (parent)
chain: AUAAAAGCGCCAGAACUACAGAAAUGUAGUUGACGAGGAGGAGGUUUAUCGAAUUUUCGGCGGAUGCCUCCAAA

Variants of: B1
Experiment: self-cleavage kobs at 640 uM GlcN6P; higher = faster cleavage; RNA array
Settings: with glucosamine-6-phosphate
Fewer inactive variants are shown than the library holds.
Please respond with reported self-cleavage kobs at 640 uM GlcN6P for every item in the list.

polymer_sequence | self-cleavage kobs at 640 uM GlcN6P
AUAAAAGCGCCAGAACUACAGAAAUGUAGUUGACGAAGAGCAGGUUUAUUGAAUUUUCGGCGGAGGCCUCCAAA [G37A G41C C50U U65G] | < 1e-05 s⁻¹
AUAAAAACGCCAGAACUACAGAAAUGUAGUUGACGAGGAGGAGGUUUAUCGAAUUCUCGGCGGAUGUUUCCAAA [G7A U56C C67U C68U] | < 1e-05 s⁻¹
AUAAAAGCGCCAGAACUACAGAAAUGUAGUUGACGAGGAGGAGGUUUAUCGCAUUUCCGGCGGAUGCGUGCAAA [A52C U57C C68G C70G] | 0.000165 s⁻¹
AUAAAAACGCCGGAACUACAGAAAUGUAGUUGACGAGGAGGAGGUUUAUCGAAUUUUCGGCGGAUGCCUCCAAA [G7A A12G] | < 1e-05 s⁻¹

List self-cleavage kobs at 640 uM GlcN6P for every entry below, keeping the order given.
1. AUAAAAGCGCCAGAACUACAGAAAUGUAGGUGACGAGGAGGAGGUUUAUCGAAUUUUCGGCGGAUGCCUUCAAA [U30G C70U]
2. AUAAAAGCGACAGAACUACAGAAAUGUAGUUGACGAGGAGGAGGUUUAUCGAAUUUUCGGCGGAGGCCUCCAAA [C10A U65G]

Response line:
1: 0.00108 s⁻¹; 2: < 1e-05 s⁻¹

Need self-cleavage kobs at 640 uM GlcN6P for each of these variants.
1. AUAAAAGCGACCGAACUACAGAAAUGUAGUUGACGAGGAGGAGGUUUAUCGAAUUAUCGGCGGAUGCCUCCAAA [C10A A12C U56A]
2. AUAAAAGCGCCAGAACUACAGAAAUGUAGUUGACGAGGAGGCGGUUUAUCGACUUUUCGACGGAUGCCUCCAAA [A42C A53C G60A]
3. AUAAAAGCGCCAGAACUACAGAAAUGUAGUUGACGAGGAGGAGGUUUAUCGAAUUUUGGGCGGGAUGCCCCAAA [C58G A64G U65A G66U C67G U69C]
4. AUAAAAGCGCCAAAACUACAGAAAUGUAGUUGACGAGGAGGAGGUUUAUCGAAUUUUCGGCGGAUGCGUCGAAA [G13A C68G C71G]
5. AUAAAAGCGCCUGAACUACAGAAAUGUAGUUGACGAGGAGAAGGUUUAUCGAAUUUUCGGCGGAUGCCUCCAAA [A12U G41A]
6. AUAAAAGCGCCAGAACUACAGAAAUGUAGUUGACGAGGAGGAGGUUUAUCGAAUUUUCCGCGAAUGCCUCCAAA [G59C G63A]

Response line:
1: 7.12e-05 s⁻¹; 2: < 1e-05 s⁻¹; 3: 9.79e-05 s⁻¹; 4: 0.000118 s⁻¹; 5: 0.00073 s⁻¹; 6: < 1e-05 s⁻¹

I would be grateful if you could provide self-cleavage kobs at 640 uM GlcN6P for each of the following entries.
1. AUAAAAGCGCCUGAACUACAGAAAUGUAGUUGACGAGGAGGAGGUUUAUCGUAUUUUCGGCGGAUGCCUCCAAA [A12U A52U]
2. AUAAAAGCGCCAGAACUACAGAAAUGUAGUUGACGAGGAGAAGGUUUAUCGAAUUUUCUGCGGAUGCCUCCAAA [G41A G59U]
3. AUAAAAGCGCCAGAACUACAGAAAUGUAGUUGACGAGGAGGAGGUUUAUCGCAUUUUCGGCGGAUGUCUCGAAA [A52C C67U C71G]
4. AUAAAAGCGCCAGAACUACAGAAAUGUAGUUGACGAGGUGGAGGUUUAUCGAAUUCUCGGCGGAUGCCUCCAAA [A39U U56C]
5. AUAAAAGCGCCAGAAGUACAGAAAUGUAGUUGACGAGGAGGACGUUUAUCGAAUUUUCGGCGGAUGCCUCCAAA [C16G G43C]
6. AUAAAAGCGCCAGAACUACAGAAAUGUAGUUGACGAUAAGGCGGUUUAUCGAAUUUUCGGCGGAUGCCUCCAAA [G37U G38A A42C]
7. AUAAAAGCGCCAGAAAUACAGAAAUGUAGUUGACAAGGAGGAAGUUUAUCGAAUUUUCGGCGGAUGCCUCCAAA [C16A G35A G43A]
8. AUAAAAGCGCCCGAGCUACAGAAAUGUAGUUGACGAGGAGGAGGUUUAUCGAAUUUUCGGCGGAUGCCUCCAAA [A12C A15G]

Response line:
0.000233 s⁻¹
< 1e-05 s⁻¹
5.68e-05 s⁻¹
0.000351 s⁻¹
< 1e-05 s⁻¹
< 1e-05 s⁻¹
< 1e-05 s⁻¹
0.00332 s⁻¹

Provide self-cleavage kobs at 640 uM GlcN6P values for the following items, in order.
1. AUAAAAGUGCCAUAACUACAGAAAUGUAGUUGACGAGGAGGAGGUUUAUCGAAUUUUCGGCGGAUGCCUCCAAA [C8U G13U]
2. AUAAAAGCCCCAGAACUACAGAAAUGUAGUUGACGAGGAGGAGGUUUAUCGAAUUUUCGGCGGAUACCUCCAAA [G9C G66A]
3. AUAAAAGCGCCAGAACUACAGAAAUGUAGUUGACGAGGAGGAGAUUUAUCGAAUUUUCCGCGGAUGCCUCCAAA [G44A G59C]
4. AUAAAAGCGCCAGAACUACAGAAAUGUAGUUGACGAGGAGGAGGUAUAUCGAAUAUUCGGCGGAUGCCUCCAAA [U46A U55A]

Response line:
< 1e-05 s⁻¹
< 1e-05 s⁻¹
< 1e-05 s⁻¹
0.00107 s⁻¹
